- assayRemarks: Selectivity index, ratio of IC50 for cytotoxicity against human HDF cells to IC50 for cytotoxicity against human U-87 MG cells
- Format: toxicity, cell-based
- condition: HDF cells versus U-87 MG cells, read-out: Ratio IC50
Measured selectivity ratio accompanies every entry in the list below.

compound	selectivity ratio
C#CCNC1=C2C[C@@H](C)C[C@H](OC)[C@H](O)[C@@H](C)/C=C(\C)[C@H](OC(N)=O)[C@@H](OC)/C=C\C=C(/C)C(=O)NC(=CC1=O)C2=O	1.97
CCCCOCCOCCNC1=C2C[C@@H](C)C[C@H](OC)[C@H](O)[C@@H](C)/C=C(\C)[C@H](OC(N)=O)[C@@H](OC)/C=C\C=C(/C)C(=O)NC(=CC1=O)C2=O	2.16
CO[C@H]1/C=C\C=C(/C)C(=O)NC2=CC(=O)C(NCCN3CCCC3=O)=C(C[C@@H](C)C[C@H](OC)[C@H](O)[C@@H](C)/C=C(\C)[C@@H]1OC(N)=O)C2=O	1.63
Nc1ccn([C@@H]2O[C@H](CO)[C@@H](O)[C@@H]2O)c(=O)n1 [CYTARABINE]	6.99
C=CCNC1=C2C[C@@H](C)C[C@H](OC)[C@H](O)[C@@H](C)/C=C(\C)[C@H](OC(N)=O)[C@@H](OC)/C=C\C=C(/C)C(=O)NC(=CC1=O)C2=O [TANESPIMYCIN]	51
CCOC(=O)[C@@H](N)CCCCNC1=C2C[C@@H](C)C[C@H](OC)[C@H](O)[C@@H](C)/C=C(\C)[C@H](OC(N)=O)[C@@H](OC)/C=C\C=C(/C)C(=O)NC(=CC1=O)C2=O	3.04

Recorded values, source ChEMBL document CHEMBL4765380.
